Collected OD450 values appear next to each entry.
- STUDY TARGET: T1, monkey TIM-3 protein with hFc tag (cTIM-3-hFc protein) (monkey; human)
- T1 construct: Made in HEK293 cells; also called monkey TIM-3 extracellular domain protein; not shown: human IgG Fc fragment (hFc) of the pCpC vector
- T1 chain: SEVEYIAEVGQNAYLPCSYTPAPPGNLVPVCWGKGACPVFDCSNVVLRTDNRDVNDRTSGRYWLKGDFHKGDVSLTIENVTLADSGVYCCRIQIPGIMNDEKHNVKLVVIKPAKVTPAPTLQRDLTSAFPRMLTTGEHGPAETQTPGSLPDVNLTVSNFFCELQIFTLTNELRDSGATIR
- ASSAY NAME: ELISA, coated cTIM-3-hFc; antibody 6.6667 nM
When you answer, write just the number.

**Query** Identify measured OD450 corresponding to 39E5H1 (TIM-3 antibody purified from hybridoma, chimeric antibody of Example 2) (antibody, V domains shown, From hybridoma of Harbour H2L2 transgenic mice: human variable regions, rat constant regions) VH: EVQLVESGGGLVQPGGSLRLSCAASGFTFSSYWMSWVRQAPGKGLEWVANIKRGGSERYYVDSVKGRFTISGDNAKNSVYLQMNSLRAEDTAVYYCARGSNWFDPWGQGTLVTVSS VL: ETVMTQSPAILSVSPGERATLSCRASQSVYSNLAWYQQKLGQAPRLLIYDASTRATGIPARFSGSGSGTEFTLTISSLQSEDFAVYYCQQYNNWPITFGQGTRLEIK
**Result** 3.5

**Query** Identify measured OD450 corresponding to 18D2H2 (TIM-3 antibody purified from hybridoma, chimeric antibody of Example 2) (antibody, V domains shown, From hybridoma of Harbour H2L2 transgenic mice: human variable regions, rat constant regions) VH: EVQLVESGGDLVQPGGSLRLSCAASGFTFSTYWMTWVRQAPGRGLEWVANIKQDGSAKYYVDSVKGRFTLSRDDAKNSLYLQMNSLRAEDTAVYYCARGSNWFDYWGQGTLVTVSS VL: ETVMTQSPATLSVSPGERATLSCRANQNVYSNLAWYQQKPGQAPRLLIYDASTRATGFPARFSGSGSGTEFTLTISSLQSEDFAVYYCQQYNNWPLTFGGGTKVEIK
**Result** 3.34

The record that follows has no OD450 shown yet.
**Query** Identify measured OD450 corresponding to 134H3G6 (TIM-3 antibody purified from hybridoma, chimeric antibody of Example 2) (antibody, V domains shown, From hybridoma of Harbour H2L2 transgenic mice: human variable regions, rat constant regions) VH: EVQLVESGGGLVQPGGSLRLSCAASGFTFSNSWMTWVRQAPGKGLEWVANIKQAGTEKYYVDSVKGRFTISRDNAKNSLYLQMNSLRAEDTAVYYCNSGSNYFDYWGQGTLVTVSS VL: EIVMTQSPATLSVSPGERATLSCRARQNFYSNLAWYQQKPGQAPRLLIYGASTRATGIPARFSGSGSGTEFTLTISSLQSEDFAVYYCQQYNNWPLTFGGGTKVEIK
**Result** 3.02
